The values you see were collected from ChEMBL document CHEMBL1132189.

Quick record: pKi, Coagulation factor X (Homo sapiens, UniProt P00742).
Remember the convention: pKi equals -log10 of concentration in molar.

Q. So what pKi did N=C(N)c1cccc(C[C@H](NS(=O)(=O)c2cccc3ccccc23)C(=O)N2CCCCC2)c1 get with Coagulation factor X (Homo sapiens, UniProt P00742)?
A. 4.77

Q. Requested read-out pKi, target or system Coagulation factor X (Homo sapiens, UniProt P00742), entry N=C(N)c1cccc(C[C@H](NS(=O)(=O)c2ccc3ccccc3c2)C(=O)N2CCCC2)c1
A. 4.30

Q. Lookup: pKi / Coagulation factor X (Homo sapiens, UniProt P00742) / CNC(=O)[C@H]1CCCN(C(=O)[C@H](Cc2cccc(C(=N)N)c2)NS(=O)(=O)c2c(C(C)C)cc(C(C)C)cc2C(C)C)C1
A. 5.82

Q. For Coagulation factor X (Homo sapiens, UniProt P00742), provide pKi of COC(=O)[C@H]1CCCN(C(=O)[C@H](Cc2cccc(C(=N)N)c2)NS(=O)(=O)c2ccc3ccccc3c2)C1 please.
A. 4.75

Q. Enter reported pKi observed with Coagulation factor X (Homo sapiens, UniProt P00742) for CC(=O)N1CCN(C(=O)[C@H](Cc2cccc(C(=N)N)c2)NS(=O)(=O)c2ccc3ccccc3c2)CC1
Sequence (P00742 41-179 limits assumed): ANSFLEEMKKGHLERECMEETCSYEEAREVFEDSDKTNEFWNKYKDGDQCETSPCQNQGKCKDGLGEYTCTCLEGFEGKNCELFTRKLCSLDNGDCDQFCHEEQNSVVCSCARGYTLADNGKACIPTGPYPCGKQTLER
Sequence (P00742 235-488 limits assumed): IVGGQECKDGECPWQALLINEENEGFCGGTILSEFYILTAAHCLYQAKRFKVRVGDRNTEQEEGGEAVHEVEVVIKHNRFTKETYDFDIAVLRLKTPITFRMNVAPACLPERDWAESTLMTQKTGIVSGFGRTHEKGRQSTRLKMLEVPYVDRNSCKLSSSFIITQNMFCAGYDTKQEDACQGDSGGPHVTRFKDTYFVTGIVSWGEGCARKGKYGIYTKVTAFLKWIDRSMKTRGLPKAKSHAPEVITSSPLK
A. 4.32

Others:
Q. Could you share what pKi was measured for N=C(N)c1cccc(C[C@H](NS(=O)(=O)c2ccc3ccccc3c2)C(=O)N2Cc3ccccc3C=C2C(=O)O)c1 , tested on Coagulation factor X (Homo sapiens, UniProt P00742)?
A. 4.27

Q. Missing value: pKi, Coagulation factor X (Homo sapiens, UniProt P00742), entry N=C(N)c1cccc(C[C@H](NS(=O)(=O)c2ccc3ccccc3c2)C(=O)N2CCCc3ccccc32)c1 . Fill in?
A. 5.64

Q. Give recorded pKi with Coagulation factor X (Homo sapiens, UniProt P00742) for the following compound: N=C(N)c1cccc(C[C@H](NS(=O)(=O)c2ccc3ccccc3c2)C(=O)N2CC(C(=O)O)=Cc3ccccc32)c1
A. 4.39

---

For reference, pKi measured on UniProt P00742:
Scale for pKi: -log10 of concentration given in mol/L; no unit attached.

Worked examples follow.
Q. For the record N=C(N)c1cccc(C[C@H](NS(=O)(=O)c2ccc3ccccc3c2)C(=O)N2CCC(C(=O)O)CC2)c1 , what value of pKi is listed for UniProt P00742?
A. 4.36

Q. API: value(readout=pKi, system=UniProt P00742) for record N=C(N)c1cccc(C[C@H](NS(=O)(=O)c2ccc3ccccc3c2)C(=O)N2CCC(C(=O)OCc3ccccc3)CC2)c1
A. 5.09

Q. Give pKi (UniProt P00742) of the following compound: COC(=O)[C@@H]1CCCN1C(=O)[C@H](Cc1cccc(C(=N)N)c1)NS(=O)(=O)c1ccc2ccccc2c1
A. 3.96

Q. UniProt P00742 / pKi / CC(C)OC(=O)C1CCN(C(=O)[C@H](Cc2cccc(C(=N)N)c2)NS(=O)(=O)c2ccc3ccccc3c2)CC1 : value?
A. 4.60

Q. Field: pKi (UniProt P00742). Entry: CNC(=O)[C@H]1CCCN(C(=O)[C@H](Cc2cccc(C(=N)N)c2)NS(=O)(=O)c2ccc3ccccc3c2)C1
A. 4.48

Q. pKi of CC(C)c1cc(C(C)C)c(S(=O)(=O)N[C@@H](Cc2cccc(C(=N)N)c2)C(=O)N2CCC[C@H](C(=O)O)C2)c(C(C)C)c1 on UniProt P00742?
A. 4.89

Further cases:
Q. // fetch UniProt P00742 pKi for CC1CCN(C(=O)[C@H](Cc2cccc(C(=N)N)c2)NS(=O)(=O)c2ccc(C(C)(C)C)cc2)CC1
A. 4.92

Q. Query for UniProt P00742: what pKi does the record show for COC(=O)[C@H](Cc1cccc(C(=N)N)c1)NS(=O)(=O)c1ccc2ccccc2c1 ?
A. 5.60

---

Target: Prothrombin (Bos taurus, UniProt P00735)
recorded_metric: pKi
Would you please state pKi, meaning minus log10 of the concentration in mol/L, as a bare number?

Here's what some known entries look like.
Q. Data request, read-out pKi, for CCCCNC(=O)[C@H](Cc1cccc(C(=N)N)c1)NS(=O)(=O)c1ccc2ccccc2c1
A. 6.92

Q. What value of pKi has been reported for the following compound? CNC(=O)[C@H]1CCCN(C(=O)[C@H](Cc2cccc(C(=N)N)c2)NS(=O)(=O)c2ccc3ccccc3c2)C1
A. 6.58

Q. Bench note: what pKi did COC(=O)[C@H]1CCCCN1C(=O)[C@H](Cc1cccc(C(=N)N)c1)NS(=O)(=O)c1ccc2ccccc2c1 show?
A. 7.16

Q. Looking for the measured pKi of COc1cc(C)c(S(=O)(=O)N[C@@H](Cc2cccc(C(=N)N)c2)C(=O)N2CCN(S(C)(=O)=O)CC2)c(C)c1C , can you help?
A. 7.50

Q. Fill blank: measured pKi of the compound N=C(N)c1cccc(C[C@H](NS(=O)(=O)c2ccc3ccccc3c2)C(=O)N2Cc3ccccc3C[C@@H]2C(=O)O)c1 is ____.
A. 7.75

***
Q. // lookup pKi for Cc1c(C)c(S(=O)(=O)N[C@@H](Cc2cccc(C(=N)N)c2)C(=O)N2CCN(S(C)(=O)=O)CC2)c(C)c2c1OC(C)(C)CC2
A. 8.13

Q. Given CN1CCN(C(=O)[C@H](Cc2cccc(C(=N)N)c2)NS(=O)(=O)c2ccc3ccccc3c2)CC1 , state its recorded pKi.
A. 7.44

---

Target: UniProt P00735
Experiment: Binding affinity towards thrombin
Measured pKi of individual entries
Answer as the number alone; pKi is minus log10 of concentration in mol/L.

Field: example entries. Status: answers known.
Q. Request the reported pKi associated with CNC(=O)[C@H](Cc1cccc(C(=N)N)c1)NS(=O)(=O)c1c(C(C)C)cc(C(C)C)cc1C(C)C
A. 5.42

Q. Look up pKi: COC(=O)[C@H]1C[C@H](C)CCN1C(=O)[C@H](Cc1cccc(C(=N)N)c1)NS(=O)(=O)c1ccc2ccccc2c1
A. 7.02

Q. Find the recorded pKi belonging to N=C(N)c1cccc(C[C@H](NS(=O)(=O)c2ccc3ccccc3c2)C(=O)C(=O)O)c1 and report it.
A. 4.52

Q. Find the recorded pKi belonging to COC(=O)[C@H](Cc1cccc(C(=N)N)c1)NS(=O)(=O)c1ccc2ccccc2c1 and report it.
A. 6.55

Q. Fill in: pKi of N=C(N)c1cccc(C[C@H](NS(=O)(=O)c2ccc3ccccc3c2)C(=O)N2CCCC[C@@H]2C(=O)O)c1 is ___
A. 6.58

Others:
Q. Which pKi value is on record for N=C(N)c1cccc(C[C@H](NS(=O)(=O)c2ccc3ccccc3c2)C(=O)N2CCC[C@H]2C(=O)OCc2ccccc2)c1 ?
A. 6.20

Q. # query: pKi of entry N=C(N)c1cccc(C[C@H](NS(=O)(=O)c2ccc3ccccc3c2)C(=O)N2CCCCCCC2)c1
A. 7.52

Q. I have this molecule here, CNC(=O)[C@H](Cc1cccc(C(=N)N)c1)NS(=O)(=O)c1ccc2ccccc2c1 , and I need its recorded pKi.
A. 5.24

---

# maps each entry to its pKi
Biological target: Serine protease 1 (Bos taurus, UniProt P00760)
Sequence (P00760 whole entry): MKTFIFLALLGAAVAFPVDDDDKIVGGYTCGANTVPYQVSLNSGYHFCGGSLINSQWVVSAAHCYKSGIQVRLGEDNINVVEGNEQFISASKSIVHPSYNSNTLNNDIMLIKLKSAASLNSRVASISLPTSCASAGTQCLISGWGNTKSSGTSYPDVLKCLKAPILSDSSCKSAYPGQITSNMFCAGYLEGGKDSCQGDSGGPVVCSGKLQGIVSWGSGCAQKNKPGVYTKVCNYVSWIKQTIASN
FYI, pKi means -log10 of a concentration in mol per litre.

Q. Given Cc1c(C)c(S(=O)(=O)N[C@@H](Cc2cccc(C(=N)N)c2)C(=O)N2CCN(S(C)(=O)=O)CC2)c(C)c2c1OC(C)(C)CC2 , state its recorded pKi.
A. 6.12

Q. Request the reported pKi associated with COC(=O)[C@H]1CCC[C@H](C)N1C(=O)[C@H](Cc1cccc(C(=N)N)c1)NS(=O)(=O)c1ccc2ccccc2c1
A. 5.68

Q. Query (compound): CC(C)OC(=O)[C@H](Cc1cccc(C(=N)N)c1)NS(=O)(=O)c1ccc2ccccc2c1 ; field requested: pKi
A. 5.85

Q. Quick one: pKi for COC(=O)C1CCN(C(=O)[C@H](Cc2cccc(C(=N)N)c2)NS(=O)(=O)c2c(C(C)C)cc(C(C)C)cc2C(C)C)CC1 ?
A. 6.57

Q. I have this compound here, CN1CCN(C(=O)[C@H](Cc2cccc(C(=N)N)c2)NS(=O)(=O)c2ccc3ccccc3c2)CC1 , and I need its recorded pKi.
A. 5.89
